src = a melting point compilation (Tetko et al.)

Readout: melting point

Cc1nc(N)ccc1Br	82 to 83 °C
CC(=O)NC1C(Oc2ccc3c(C)cc(=O)oc3c2)OC(CO)C(O)C1O (stereo not given)	208 to 210 °C
Brc1ccc2c(c1)OCCOCCOCCOCCO2	66 to 71 °C
Ic1ccccc1CN1CCOCC1	46 to 48 °C
OCc1ccc(-c2ccccn2)cc1	49 to 51 °C

Give reported melting point value for NC(=S)CS(=O)(=O)c1cccs1
160 to 164 °C

Item C[Si](C)(C)N=C=N[Si](C)(C)C : provide melting point
-23 °C

Indicate the recorded melting point value for this compound: CC(=O)Oc1ccc(C#N)cc1
57 °C

Tell me melting point reported for COc1ccccc1C1(C)CCc2oc3ccc(Cl)cc3c2-c2oc(C)cc21 (stereo not given)
197 to 198 °C

Identify melting point associated with the compound C=C(O[Si](C)(C)C)c1c(C)c(C)c(C)c(C)c1C
41 °C

---

Readout: melting point

# example entries with known answers
CCOC(=O)c1cn2nc(Cl)ccc2n1	156 to 157 °C
Cc1cc2cc(Cl)ccc2[nH]1	112 to 118 °C
O=C(Cl)c1ccc(CCl)cc1	29 to 33 °C
NC(Cc1cc(F)cc(F)c1)C(=O)O (racemic)	243 to 245 °C

Could you now look at the following molecule, please?
Indicate the recorded melting point value for this molecule: O=c1c2ccccc2[nH]c(=S)n1-c1ccccc1
309 to 311 °C

---

Readout: melting point

O=C1OC(=O)C2=C1Cc1ccccc1C2	241 to 247 °C

Note melting point for the compound shown: Nc1csc2nccnc12
88 to 89 °C

Quickly give me recorded melting point for CN(C)c1ccc(/C=C(/C#N)c2nc3ccccc3c(=O)[nH]2)cc1
308 to 309 °C

Give me measured melting point, please, for this compound: N#Cc1c(F)cccc1Oc1ccc(F)cc1
73 to 74 °C

Check the records and state melting point for OCc1ccc(-c2ccco2)s1
56 to 57 °C

---

Readout: melting point

CC(=O)Nc1cc(C)no1	161 to 162 °C

Answer with reported melting point of NC(=S)Nc1ccc(F)cc1F
163 to 168 °C

Using known records, supply melting point for CC12CCC(O)CC1CC1(OCCO1)C1C2CCC2(C)C1CCC21OCCO1 (stereo unspecified)
99 to 103 °C

Annotate the molecule N#C/C(=C\c1cccc(O)c1)c1nc2ccccc2[nH]1 with its measured melting point.
299 to 300 °C

Supply reported melting point belonging to this molecule: COc1ccc(C(=O)O)cc1[N+](=O)[O-]
191 to 194 °C

Look up melting point of O=Cc1coc2ccccc2c1=O and report it.
151 to 155 °C

---

Recorded melting point for the following molecules
Express it in °C; write the number only.

CCOC(=O)c1c(SC)nn(C(=O)NNc2ccccc2)c1N	205
O=C(O)[C@H](O)[C@@H](O)[C@H](O)[C@H](O)CO	131
Cn1c(S(=O)(=O)O)nc2ccccc21	341
O=[N+]([O-])Nc1ccccc1	47.3
CCC(C(=O)O)C1(O)CCC(c2ccccc2)CC1 (stereo not drawn)	157

Could you now consider this next molecule?
Given the molecule Cc1nc(-c2ccccc2)cs1 , write its reported melting point.
54

---

# reported melting point; entries follow

Quick one: give measured melting point for O=C(O)c1cccc(OC(F)(F)C(F)F)c1
127 to 128 °C

Give melting point for O=C(Cl)c1ccc(Oc2cc(Cl)cc(Cl)c2)o1
60 to 62 °C

Output measured melting point for this item: Cc1c(C(=O)Cl)cnn1-c1ccccc1
147 to 148 °C

Return the recorded melting point value; entry: CCCCc1c(C)nc(N)nc1O
273 to 275 °C

Name the recorded melting point of the compound listed here: O=Cc1ccccc1-c1cccnc1
68 to 69 °C

In one line, give reported melting point of the entry BrCc1cccc(N2CCCC2)n1 .
69 to 72.5 °C

# return recorded melting point for entry OC(c1ccccc1)(c1ccccc1)[C@H]1CCCN1
77 to 81 °C

Fill in melting point for record N#Cc1sc2nc(-c3ccccc3)cc(C(F)(F)F)c2c1N
236 to 238 °C

Check the records and state melting point for CC1OC(=O)C(C)C1CC(O)C(C)(O)C1CCC2(O)C3=CC(=O)C4CC(O)C(O)CC4(C)C3CCC12C (centres undefined)
158 to 160 °C

Fill in melting point for record CN(C)c1ccc(C=C/C(=N\Nc2ccccc2)c2ccccc2)cc1
127 to 128 °C

Please give measured melting point of the following entry: O=C(CBr)c1cc(-c2ccccc2)no1
109 to 112 °C

Return reported melting point. Input compound: COc1cc(C=O)ccc1OCc1c(F)cccc1Cl
124 to 126 °C

Query melting point for Cc1nc(-c2ccc(C(F)(F)F)cc2)sc1C=O
131 to 133 °C

Give recorded melting point. CCOC(=O)c1cc(Cl)cc(Cl)c1
35 to 36 °C

---

Quick reference for melting point among some compounds

Give melting point for COc1cc(N)c(C(=O)O)cc1OC
155 to 160 °C

For the compound COc1ccc(-n2ncc(C=O)c2C)cc1 , give its reported melting point.
80 to 82 °C

Give a short answer stating reported melting point for O=C(O)c1ccc2occc2c1 .
189 to 190 °C

In one line, give reported melting point of the entry Nc1ccc(I)cc1Cl .
73 to 75 °C

For Cc1nc(C(=O)O)cs1 , write its melting point.
148 to 149 °C

Give the reported value of melting point for this record: Cn1c(=O)n(-c2ccccc2)c(=O)c2c3c(sc21)CCCC3
249 to 251 °C

Fill in melting point for record Fc1cc(Br)cc(Br)c1N=C=S
50 to 51 °C

In one line, give reported melting point of the entry CO[C@]1(CBr)O[C@H](COC(=O)c2ccc(C)cc2)[C@@H](OC(=O)c2ccc(C)cc2)[C@@H]1OC(=O)c1ccc(C)cc1 .
148 to 149 °C

Please look at this compound and report its melting point: O=S(=O)(Cl)c1ccc(S(=O)(=O)N2CCOCC2)cc1
150 to 152 °C

Return melting point (reported value) for this compound: O=C1C2CCC1C1CCC2O1
81 °C

Provide one value: measured melting point of Cc1cccc2c(O)c(C=C3C(=O)N(c4ccccc4)N=C3c3ccccc3)c(=O)[nH]c12
113 °C

Input NNc1ccc(Br)cc1 , output reported melting point.
108 °C

Give the reported melting point for this compound. CCC1CCC(=O)O1 (centres undefined)
-18 °C

Supply measured melting point of CC1=C(C=NO)C(=O)C(C(C)C)C=C1 (centres undefined) in your reply.
146 °C

---

Readout: melting point

Observe how each entry below is paired with its result.
COC(=O)CC(=O)c1ccc(C(F)(F)F)cc1	57 to 62 °C
COC(=O)c1ccc(CCl)o1	32 to 36 °C
OCc1cc(-c2cccs2)[nH]n1	126 to 128 °C
CSc1ccc(Oc2cccc(F)c2C#N)cc1	68 to 71 °C
Cn1nc(-c2ccc(C=O)s2)cc1C(F)(F)F	80 to 81 °C
Cn1cnc(S(=O)(=O)Cl)c1	85 to 90 °C

Supply reported melting point belonging to this compound: O=C(O)c1ccc(OC2CCOCC2)cc1
185 to 186 °C

Supply measured melting point of CCCCOc1ccc(NC(=O)C(F)(F)C(F)(F)C(F)(F)C(F)(F)C(F)(F)C(F)(F)C(F)(F)C(F)(F)F)cc1 in your reply.
136 to 138 °C

Please supply the value of reported melting point for the item CC(C)(C)OC(=O)Nc1ccc(CN)cc1
89 to 94 °C

Check the records and state melting point for CN(CCOc1ccc(CC2SC(=O)NC2=O)cc1)c1ccccn1 (centres undefined)
122 °C

For the compound Cc1cc(C)c2c(c1C)C(=O)C2 , report melting point.
73 °C

For the compound CSC(=Nc1nnc(-c2ccccc2)s1)SC , give its measured melting point value.
111 to 113 °C

Give the measured melting point for CCNCC(O)c1cccc(O)c1 (centres undefined)
148 °C

Note down melting point recorded for O=Cc1ccc(C=O)c([N+](=O)[O-])c1
97 °C

---

# melting point per record follows
Quick note: give the figure in °C, leave out the unit.

Use these answered entries as a reference point.
Cc1ccc(C(N)=O)cc1[N+](=O)[O-]	166
OC12CC3CC(CC(C3)C1)C2	240
Cc1ccc(S)cc1	43

Give a short answer stating reported melting point for CCOC(=O)c1sc(-c2cccc(N)c2)nc1C .
84

State, in one line, measured melting point of OC1C(O)C(O)C(O)C(O)C1O (centres undefined)
230

Query melting point for CSc1cc2c(c3c1CCOc1ccccc1-3)c(=O)n(-c1ccccc1)n2C
176

Determine its reported melting point: ClC1CCCC1
-50

Please report melting point for the following compound: Nc1ccc(O)c2c1C(=O)c1c(O)ccc(N)c1C2=O
300
